molecular target: Hck (UniProt P08631); assay: phosphorylation enrichment, bacterial display (enrichment ratio); higher = better substrate or ligand; peptides without Tyr show the background;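 further: 11-residue human phosphosite peptides and single-mutation variants displayed on the E. coli surface, counted by deep sequencing, each peptide's frequency after selection divided by its frequency in the unselected input library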;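 further: frequency after pTyr selection over input frequency; kinase dosed for 20-30% of maximal phosphorylation in three min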
Sequence (P08631 whole entry, looked up): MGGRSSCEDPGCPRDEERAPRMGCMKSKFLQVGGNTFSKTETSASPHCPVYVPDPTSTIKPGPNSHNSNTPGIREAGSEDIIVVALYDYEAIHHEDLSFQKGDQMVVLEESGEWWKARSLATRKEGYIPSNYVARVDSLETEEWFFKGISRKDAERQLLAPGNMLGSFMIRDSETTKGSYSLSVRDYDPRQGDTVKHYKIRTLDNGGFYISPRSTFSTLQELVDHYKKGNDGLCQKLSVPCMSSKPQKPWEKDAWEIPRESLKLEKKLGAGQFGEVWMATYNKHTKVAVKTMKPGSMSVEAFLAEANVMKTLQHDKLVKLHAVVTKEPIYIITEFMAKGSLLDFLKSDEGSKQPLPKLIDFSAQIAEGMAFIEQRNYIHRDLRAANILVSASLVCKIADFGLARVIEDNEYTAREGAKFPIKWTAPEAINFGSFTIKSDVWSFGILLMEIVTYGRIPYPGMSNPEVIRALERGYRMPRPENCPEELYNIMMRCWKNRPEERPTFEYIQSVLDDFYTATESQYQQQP
Exercise: for every item that follows, state its recorded phosphorylation enrichment.
Numbers only.

Sample records with phosphorylation enrichment:
Sequence Content	phosphorylation enrichment
TEAEPYFRSLR [NPHS1_Y1138_YF]	0.511
FADIAYNFRHG [PAH_Y166_YF]	0.506
RILENYGADID [DNAH5_Y596_L591R]	0.494

Turning now to a further record.
Query block: Need phosphorylation enrichment, item GKFHMYVAVWT [F13A1_Y161_R159H]
Result block: 0.498

----------
target: Fes (UniProt P07332); assay: phosphorylation enrichment, bacterial display (enrichment ratio); higher = better substrate or ligand; peptides without Tyr show the background
Sequence (P07332 whole entry, looked up): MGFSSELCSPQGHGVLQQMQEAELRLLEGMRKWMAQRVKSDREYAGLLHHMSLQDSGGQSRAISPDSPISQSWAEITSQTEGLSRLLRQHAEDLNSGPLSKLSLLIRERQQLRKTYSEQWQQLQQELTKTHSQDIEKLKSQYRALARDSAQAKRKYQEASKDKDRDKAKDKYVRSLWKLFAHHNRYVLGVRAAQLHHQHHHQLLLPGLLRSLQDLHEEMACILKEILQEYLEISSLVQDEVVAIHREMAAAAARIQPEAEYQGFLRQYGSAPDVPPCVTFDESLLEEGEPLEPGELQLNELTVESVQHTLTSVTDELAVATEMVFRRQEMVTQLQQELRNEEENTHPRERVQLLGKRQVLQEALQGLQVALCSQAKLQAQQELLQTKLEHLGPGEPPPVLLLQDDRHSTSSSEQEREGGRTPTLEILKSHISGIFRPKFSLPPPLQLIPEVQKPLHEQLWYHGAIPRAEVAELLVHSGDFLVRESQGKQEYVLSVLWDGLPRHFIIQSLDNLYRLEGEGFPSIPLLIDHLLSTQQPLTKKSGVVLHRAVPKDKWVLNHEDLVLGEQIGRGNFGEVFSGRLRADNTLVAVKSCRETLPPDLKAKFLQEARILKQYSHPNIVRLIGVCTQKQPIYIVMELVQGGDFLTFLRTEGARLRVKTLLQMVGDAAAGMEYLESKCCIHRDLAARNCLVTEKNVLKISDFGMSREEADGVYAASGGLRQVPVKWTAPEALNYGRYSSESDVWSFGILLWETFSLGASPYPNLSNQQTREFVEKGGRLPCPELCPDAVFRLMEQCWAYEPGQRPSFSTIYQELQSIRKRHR
Class membership depends on phosphorylation enrichment alone; the intervals are 1 (below 0.8), 2 (0.8 to below 1), 3 (1 or more)

Sequence Content	Group Label
QNTGYYYDLYG [PTPN11_Y62_D61Y]	3
FSNVLYRPRGP [TMIGD2_Y197_A202P_YF]	1
SARFPYLMAEK [LDHB_Y173_R172P]	1

Query block: Which band does LADKPYTFEDY [FXN_Y118] fall in?
Result block: 3

Query block: Which phosphorylation enrichment category applies to LENSTYQFIHV [CRB1_Y760_R764H_YF] here?
Result block: 3

Query block: State the band of QNTGVYFDLFG [PTPN11_Y62_D61V_YF]
Result block: 3

Query block: Place this sequence in its band: EDGRLYAVKRS [PKMYT1_Y136]
Result block: 2

Query block: Using the reported phosphorylation enrichment, which band applies to SPDMLYQYLKQ [RPAP3_Y567] ?
Result block: 1

Query block: Which bin should I file CSEEMYCLMLQ [RET_Y981_R982C] under?
Result block: 3

Query block: Looking at PSSNLYFRCLT [CNGA3_Y168_W171C_YF] , which class would you pick?
Result block: 3

Query block: Which bin, given its phosphorylation enrichment, does TVETKYDNISR [SETDB2_Y477] occupy?
Result block: 1
